Test system: LNCaP cells
Experiment: Competitive inhibition of peptides and their corresponding phages
Details: peptides at 100 μM
Measured metric: competitive inhibition of peptide to its corresponding phage

[[record]]
primary_sequence = "SMAGEQISWALI"
data_value = "negligible"

[[record]]
primary_sequence = "NRPDSAQFWLHH"
data_value = "negligible"

[[record]]
primary_sequence = "HSDNHYRPADKL"
data_value = "negligible"

[[record]]
primary_sequence = "YPTDWLWHGHNK"
data_value = "negligible"

[[record]]
primary_sequence = "QPGHAILAQHPT"
data_value = "negligible"


* * *

Tested on: PSMA-positive LNCaP cells
Test: Apparent Kd of FAM-labeled peptides by flow cytometry in LNCaP cells
Assay type: cell-based
Conditions: 4° C., 1 h
// Kd lookup, one value per entry
Measured metric: Kd

[[record]]
primary_sequence = "WQPDTAHHWATL"
measured_metric = "Kd"
data_value = "23.6 µM"

[[record]]
primary_sequence = "KYLAYPDSVHIW"
measured_metric = "Kd"
data_value = "14.4 µM"

